# Procedure text: CCTE_Padilla_ZF_Score.Blood_pooling: CCTE's 144 Hour Post-fertilization zebrafish Assay Score for Blood Pooling, Padilla Lab (AID 2284415)
The source made the active and inactive calls. Rule for the calls: active = hit-call score of the fitted dose curve at least 0.9, where 1 is the maximum; inactive = score below 0.9.
Please answer using one outcome listed in active, inactive

O=S(=O)(O)CCC(F)(F)C(F)(F)C(F)(F)C(F)(F)C(F)(F)C(F)(F)F | inactive
OCCC(F)(F)C(F)(F)C(F)(F)C(F)(F)F | inactive
OC(O)(C(F)C(O)(O)C(F)(F)F)C(F)(F)F | active
FC(F)(F)C(F)(F)C(F)(F)C(F)(F)C(F)(F)C(F)(F)I | inactive
FC(F)=C(F)C(F)(F)C(F)(F)C(F)(F)C(F)(F)C(F)(F)C(F)(F)F | inactive

Exam item: Hello, I am checking results. What call was entered for `FC(F)(F)COC(OCC(F)(F)F)OCC(F)(F)F` ?
Marked response: inactive

Exam item: Hello, I am checking results. What call was entered for FC(F)C(F)(F)COCC1CO1 (stereo not drawn) ?
Marked response: inactive

Exam item: Hello, I am checking results. What call was entered for `O=C(Cl)C(F)(F)C(F)(F)C(F)(F)C(=O)Cl` ?
Marked response: inactive

* * *

# Procedure text: Tanguay_ZF_120hpf_YSE_legacy: (Legacy) Oregon State University Tanguay Lab 120 Hour Post-fertilization zebrafish Assay for Yolk Sac Edema (AID 2283634)
Inconclusive results are not listed. The source made the active and inactive calls. The calls were made as follows: active = hit-call score of the fitted dose curve at least 0.9, where 1 is the maximum; inconclusive = response in the unintended direction; inactive = score below 0.9.
Please answer using one outcome listed in Yes = active, No = inactive

Some solved entries appear below for comparison.
OCC(CO)(CO)CO | No
CCCCCOC(C)=O | No
COS(C)(=O)=O | No
OC[C@H]1O[C@@H]2O[C@H]3[C@H](O)[C@@H](O)[C@@H](O[C@H]4[C@H](O)[C@@H](O)[C@@H](O[C@H]5[C@H](O)[C@@H](O)[C@@H](O[C@H]6[C@H](O)[C@@H](O)[C@@H](O[C@H]7[C@H](O)[C@@H](O)[C@@H](O[C@H]1[C@H](O)[C@H]2O)O[C@@H]7CO)O[C@@H]6CO)O[C@@H]5CO)O[C@@H]4CO)O[C@@H]3CO | No

Exam item: Hello, I am checking results. What call was entered for `c1ccc2cc3ccccc3cc2c1` ?
Marked response: No

Exam item: Hello, I am checking results. What call was entered for `O=c1[nH]cnc2c1ncn2[C@H]1CC[C@@H](CO)O1` ?
Marked response: No

Exam item: Hello, I am checking results. What call was entered for `NNC(=O)c1ccncc1` ?
Marked response: No

Exam item: Hello, I am checking results. What call was entered for `C[C@@H](Oc1ccc(CNC(=O)c2cccnc2Oc2ccc3c(c2)OCO3)c(F)c1)C(=O)O` ?
Marked response: No

Exam item: Hello, I am checking results. What call was entered for `CC(C)c1nnc2ccc(-c3ocnc3-c3cc(F)ccc3F)cn12` ?
Marked response: No

Exam item: Hello, I am checking results. What call was entered for `COc1cc(C(C)C)c2c(c1)S(=O)(=O)N(COc1cc(=O)n3cccc(OCCN4CCCCC4)c3n1)C2=O` ?
Marked response: No

Exam item: Hello, I am checking results. What call was entered for `c1ccc2c(c1)-c1cccc3c1c-2cc1ccccc13` ?
Marked response: No

Exam item: Hello, I am checking results. What call was entered for CCCCC(CC)C(=O)OCCOCCOCCOC(=O)C(CC)CCCC (configuration not stated) ?
Marked response: No

Exam item: Hello, I am checking results. What call was entered for `CCN(CC)C(=S)SSC(=S)N(CC)CC` ?
Marked response: Yes

Exam item: Hello, I am checking results. What call was entered for `NC(=O)N(O)[C@@H]1COc2cc(OCc3ccccc3)ccc21` ?
Marked response: No

Exam item: Hello, I am checking results. What call was entered for `c1ccc(C(O[C@@H]2CCCN(CCc3ccc4c(c3)OCO4)C2)c2ccccc2)cc1` ?
Marked response: Yes

Exam item: Hello, I am checking results. What call was entered for `CCCCCCCCCCCCCCCCOS(=O)(=O)O` ?
Marked response: No

Exam item: Hello, I am checking results. What call was entered for CC(C)CC(C)O (configuration not stated) ?
Marked response: No

* * *

# Read-out: Plasminogen activator inhibitor-1 (PAI1), SERPINE1 (gene 5054)
# Procedure text: BSK_MyoF_PAI1: BioMAP Diversity Plus: MyoF Assay for Plasminogen activator inhibitor-1 (PAI1) Biomarker Activity (AID 2284256);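 note: PAI-1 protein level measured by ELISA in fibroblast cultures; PAI-1 read 24 h after compound addition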
# Condition parameters: primary human lung fibroblasts
Calls of active or inactive are those of the source. How the source made its calls: active means hit-call score of the fitted dose curve at least 0.9, where 1 is the maximum; inactive means score below 0.9.
Recorded metric: outcome

Here is how some molecules turned out for outcome.
OCc1c[nH]c2ccccc12 | inactive
S=P(N1CC1)(N1CC1)N1CC1 | inactive
NCC(F)(F)C(F)(F)C(F)(F)C(F)(F)F | inactive
Cc1cccc(O)c1C | inactive

Note to self: outcome recorded for `O=S(=O)(O)CCC(F)(F)C(F)(F)C(F)(F)C(F)(F)C(F)(F)C(F)(F)F` was inactive

Note to self: outcome recorded for `FC(F)=C(F)C(F)(F)C(F)(F)C(F)(F)C(F)(F)C(F)(F)C(F)(F)F` was inactive

Note to self: outcome recorded for FC(F)C(F)(F)COCC1CO1 (centres undefined) was inactive

Note to self: outcome recorded for `OCCC(F)(F)C(F)(F)C(F)(F)C(F)(F)F` was inactive

Note to self: outcome recorded for `C[Si](C)(C)C(F)(F)C(F)(F)C(F)(F)F` was inactive

* * *

# Target of assay: Hypoxia-inducible factor 1-alpha (Homo sapiens) (UniProt Q16665)
# Sequence (Q16665 whole entry, looked up): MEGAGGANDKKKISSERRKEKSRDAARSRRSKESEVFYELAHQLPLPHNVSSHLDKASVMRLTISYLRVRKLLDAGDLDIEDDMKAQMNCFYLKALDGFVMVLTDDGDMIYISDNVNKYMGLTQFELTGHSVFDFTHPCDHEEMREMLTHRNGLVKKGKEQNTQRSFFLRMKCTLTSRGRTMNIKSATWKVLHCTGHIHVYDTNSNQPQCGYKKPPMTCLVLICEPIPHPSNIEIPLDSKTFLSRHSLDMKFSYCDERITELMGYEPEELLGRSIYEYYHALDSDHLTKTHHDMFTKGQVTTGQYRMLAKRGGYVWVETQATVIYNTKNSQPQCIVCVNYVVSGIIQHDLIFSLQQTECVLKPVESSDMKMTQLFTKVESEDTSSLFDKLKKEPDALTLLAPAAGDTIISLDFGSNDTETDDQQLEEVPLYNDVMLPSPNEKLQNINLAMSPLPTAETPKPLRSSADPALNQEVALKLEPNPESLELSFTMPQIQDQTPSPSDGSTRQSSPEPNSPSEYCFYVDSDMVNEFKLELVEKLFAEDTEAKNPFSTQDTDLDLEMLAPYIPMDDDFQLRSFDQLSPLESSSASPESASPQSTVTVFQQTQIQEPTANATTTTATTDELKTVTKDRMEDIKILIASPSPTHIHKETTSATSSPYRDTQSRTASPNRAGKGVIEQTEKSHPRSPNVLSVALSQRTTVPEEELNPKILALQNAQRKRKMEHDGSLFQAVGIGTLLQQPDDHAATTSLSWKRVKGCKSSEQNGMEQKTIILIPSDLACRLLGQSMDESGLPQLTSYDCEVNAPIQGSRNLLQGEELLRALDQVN
# Procedure text: ATG_HIF1a_CIS: Attagene CIS-FACTORIAL HepG2 Assay for human Hypoxia Inducible Factor 1 (HIF1A) (AID 2282951)
# Condition parameters: HepG2 Attagene cis-factorial HIF1a reporter transcription; actives raise or lower the signal
Activity calls are given as the source filed them. How the source made its calls: active means hit-call score of the fitted dose curve at least 0.9, where 1 is the maximum; inactive means score below 0.9.
Please answer using one outcome listed in t for active, f for inactive

O=c1[nH]cnc2c1ncn2[C@H]1CC[C@@H](CO)O1 | f
OC(CCl)CCl | f
NC(=O)N(O)[C@@H]1COc2cc(OCc3ccccc3)ccc21 | f
CCCCCCCCN(C)C | f
COc1cc2c(c(OC)c1OC)-c1ccc(OC)c(=O)cc1[C@@H](NC(C)=O)CC2 | t
O=C(Cl)C(F)(F)C(F)(F)C(F)(F)C(=O)Cl | f

Pending molecule:
Exam item: Hello, I am checking results. What call was entered for `Cc1nc(-c2ccccn2)ncc1C(=O)Nn1cc(C)c2cc(F)ccc21` ?
Marked response: t

* * *

# Read-out: Vascular cell adhesion molecule 1 (VCAM1), VCAM1 (gene 7412)
# Procedure text: BSK_4H_VCAM1: BioMAP Diversity Plus: 4H Assay for Vascular cell adhesion molecule 1 (VCAM1) Biomarker Activity (AID 2283033);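 note: cell-surface VCAM-1 protein measured by ELISA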
# Condition parameters: primary human endothelial cells (HUVEC); actives raise or lower the signal
The source made the active and inactive calls. The calls were made as follows: active = hit-call score of the fitted dose curve at least 0.9, where 1 is the maximum; inactive = score below 0.9.
Please answer using one outcome listed in active, inactive

C=CN1CCCC1=O | inactive
OC[C@H]1O[C@@H]2O[C@H]3[C@H](O)[C@@H](O)[C@@H](O[C@H]4[C@H](O)[C@@H](O)[C@@H](O[C@H]5[C@H](O)[C@@H](O)[C@@H](O[C@H]6[C@H](O)[C@@H](O)[C@@H](O[C@H]7[C@H](O)[C@@H](O)[C@@H](O[C@H]1[C@H](O)[C@H]2O)O[C@@H]7CO)O[C@@H]6CO)O[C@@H]5CO)O[C@@H]4CO)O[C@@H]3CO | inactive
O=C(Cl)C(F)(F)C(F)(F)C(F)(F)C(=O)Cl | inactive
O=c1[nH]cnc2c1ncn2[C@H]1CC[C@@H](CO)O1 | inactive

Exam item: Hello, I am checking results. What call was entered for `CNC(C)=O` ?
Marked response: inactive

Exam item: Hello, I am checking results. What call was entered for `C[C@]12C=CC(=O)C=C1CC[C@H]1[C@@H]3C[C@@H](O)[C@](O)(C(=O)CO)[C@@]3(C)C[C@H](O)[C@@]12F` ?
Marked response: inactive

Exam item: Hello, I am checking results. What call was entered for `NC(=O)N(O)[C@@H]1COc2cc(OCc3ccccc3)ccc21` ?
Marked response: inactive

* * *

# Procedure text: BSK_hDFCGF_Proliferation: Cell Proliferation Assessment in the BioMAP Diversity Plus: hDFCGF Assay (AID 2283059);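 note: curves fitted for both rise and fall of signal versus DMSO baseline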
# Condition parameters: primary human foreskin fibroblasts
Calls of active or inactive are those of the source. Rule for the calls: active = hit-call score of the fitted dose curve at least 0.9, where 1 is the maximum; inactive = score below 0.9.
Please answer using one outcome listed in active, inactive

Some solved entries appear below for comparison.
NC(N)=O | inactive
CCc1cccc(CC)c1N | inactive

Exam item: Hello, I am checking results. What call was entered for `CC1(C)C(=O)N(Cl)C(=O)N1Cl` ?
Marked response: inactive

Exam item: Hello, I am checking results. What call was entered for `OC(CCl)CCl` ?
Marked response: inactive

* * *

# Read-out: Interleukin 6 (IL6), IL6 (gene 3569)
# Procedure text: LTEA_HepaRG_IL6: Life Technologies and Expression Analysis (LTEA) Assay for Interleukin 6 (IL6) using HepaRG (AID 2283509)
# Condition parameters: mRNA level, 48 h; actives raise or lower the signal
The source made the active and inactive calls. How the source made its calls: active means hit-call score of the fitted dose curve at least 0.9, where 1 is the maximum; inactive means score below 0.9.
Please answer using one outcome listed in active, inactive

Some solved entries appear below for comparison.
Cn1c(=O)c2[nH]cnc2n(C)c1=O | inactive
Nc1ccn([C@@H]2O[C@H](CO)[C@@H](O)[C@@H]2O)c(=O)n1 | inactive
OCc1ccccc1 | inactive
OC(CCl)CCl | inactive
CC(C)c1nnc2ccc(-c3ocnc3-c3cc(F)ccc3F)cn12 | inactive
CCOC(N)=O | inactive
CCCCCCCC1CCC(=O)O1 (stereo unspecified) | inactive
c1ccc2c(c1)-c1cccc3c1c-2cc1ccccc13 | inactive

Exam item: Hello, I am checking results. What call was entered for `Cc1ncc([C@@H](CCCCCCc2ccc3c(n2)NCCC3)CC(=O)O)cn1` ?
Marked response: inactive

Exam item: Hello, I am checking results. What call was entered for `CCc1ccc(O)c(C(C)(C)C)c1` ?
Marked response: inactive

Exam item: Hello, I am checking results. What call was entered for `OCCOCCOCCO` ?
Marked response: inactive

Exam item: Hello, I am checking results. What call was entered for `NNC(=O)c1ccncc1` ?
Marked response: inactive

Exam item: Hello, I am checking results. What call was entered for `OC(Cn1cncn1)(Cn1cncn1)c1ccc(F)cc1F` ?
Marked response: inactive

Exam item: Hello, I am checking results. What call was entered for `O=C(O)c1cccc(C[C@@H]2COc3ccc(OCc4nc5cc(F)ccc5s4)cc3[C@@H]2O)c1` ?
Marked response: inactive
